Target: human dopamine D4 receptor (Homo sapiens, UniProt P21917)
Construct: expressed in transfected cells
Sequence (P21917 whole entry): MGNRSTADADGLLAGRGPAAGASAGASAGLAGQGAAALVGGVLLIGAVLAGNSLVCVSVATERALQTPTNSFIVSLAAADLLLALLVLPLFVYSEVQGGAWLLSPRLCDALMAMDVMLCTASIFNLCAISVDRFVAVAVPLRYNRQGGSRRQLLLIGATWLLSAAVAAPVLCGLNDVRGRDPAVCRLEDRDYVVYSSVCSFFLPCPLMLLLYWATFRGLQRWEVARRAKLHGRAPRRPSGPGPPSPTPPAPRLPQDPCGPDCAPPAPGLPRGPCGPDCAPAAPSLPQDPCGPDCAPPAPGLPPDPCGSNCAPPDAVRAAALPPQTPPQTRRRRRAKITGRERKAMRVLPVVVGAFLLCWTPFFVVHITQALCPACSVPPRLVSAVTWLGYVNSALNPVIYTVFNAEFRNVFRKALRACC
Assay: Binding affinity for dopamine D4 receptor ([3H]-spiperone displacement, membrane fraction)
Details: cloned human dopamine D4 receptor; [3H]-spiperone 0.2nM; 37°C for 30 min; Ki from IC50 by the equation of Cheng and Prusoff
Procedure: Cells that express cloned human dopamine D4 receptor were harvested in an assay buffer (50mM Tris-HCl, pH7.4, containg 120 mM NaCl, 5 mM KCl, 1mM MgCl2, and 1 mM CaCl2) and homogenized in a potter type homogenizer. […] The radioactivity was measured with a packered liquid scintillation counter. […] For each compound, IC50 was determined by a regression analysis using a nonlinear least square method. The Ki value was then calculated by the equation of Cheng and Prusoff.
pKi: −log10 of the molar value.
ENDPOINT_NAME: pKi

O=c1ccc2ccccc2n1CCCN1CCN(CC2CCCCC2)CC1: 8.12

1: O=C1CCc2ccccc2N1CCCC1CCN(Cc2ccc(F)cc2F)CC1
2: O=C1COc2ccccc2N1CCCC1CCN(Cc2ccc(F)cc2)CC1
For the two items 1 and 2 , which reports the higher pKi value? // return label of chosen record
1
(1: 8.23, 2: 7.54)

Entry source: patent EP0934932A1
